Property: MIC S. suis; scope: individual compounds
# System: S. suis
# Method description: Minimal inhibitory concentration (MIC), double-dilution in broth, OD600
# Format: cell-based, Streptococcus suis
# Condition info: unit assumed
Please give a number only; it is taken to be in µg/mL.

- Molecular string: "COc1ccc(-c2c(-c3ccc(OC)c(C)c3O)n[nH]c2C(F)(F)F)cc1"
  Unit abbreviation: "µg/mL"
  MIC S. suis: 50
- Molecular string: "CCOc1ccc(-c2n[nH]c(C)c2-c2ccc(Cl)cc2)c(O)c1"
  Unit abbreviation: "µg/mL"
  MIC S. suis: 50
- Molecular string: "COc1ccc(-c2[nH]nc(C(F)(F)F)c2-c2ccc(OC)c(OC)c2)c(O)c1"
  Unit abbreviation: "µg/mL"
  MIC S. suis: 50
- Molecular string: "C=C(C)COc1ccc(-c2[nH]nc(C(F)(F)F)c2-c2ccccc2OC)c(O)c1"
  Unit abbreviation: "µg/mL"
  MIC S. suis: 12.5
- Molecular string: "Oc1ccc(-c2[nH]nc(C(F)(F)F)c2-c2ccccc2)c(O)c1"
  Unit abbreviation: "µg/mL"
  MIC S. suis: 12.5

Prompt line: // lookup MIC S. suis for Cc1ccc(COc2ccc(-c3n[nH]c(C(F)(F)F)c3-c3cccc4ccccc34)c(O)c2)cc1
Response line: 25

Prompt line: // lookup MIC S. suis for Oc1cc(OCc2ccccc2)ccc1-c1n[nH]c(C(F)(F)F)c1-c1ccc(Br)cc1
Response line: 3.13

Prompt line: // lookup MIC S. suis for COc1ccc(-c2c(C(F)(F)F)n[nH]c2-c2ccc(OCc3ccc(F)cc3)cc2O)cc1
Response line: 25

Prompt line: // lookup MIC S. suis for Oc1ccc(-c2onc(C(F)(F)F)c2-c2ccc(Cl)cc2)c(O)c1
Response line: 12.5

Prompt line: // lookup MIC S. suis for Oc1ccc(-c2n[nH]c(C(F)(F)F)c2-c2ccc(Cl)cc2)c(O)c1
Response line: 12.5
